# Measured On: T1, AAV8 (adeno-associated virus 8, Assembled 60-mer capsid of VP1/VP2/VP3 (nested products of one cap gene), amine-coupled to a CM5 chip; the letters give one VP1 subunit only.)
# T1 construct: also called adeno-associated virus serotype 8
# T1 chain: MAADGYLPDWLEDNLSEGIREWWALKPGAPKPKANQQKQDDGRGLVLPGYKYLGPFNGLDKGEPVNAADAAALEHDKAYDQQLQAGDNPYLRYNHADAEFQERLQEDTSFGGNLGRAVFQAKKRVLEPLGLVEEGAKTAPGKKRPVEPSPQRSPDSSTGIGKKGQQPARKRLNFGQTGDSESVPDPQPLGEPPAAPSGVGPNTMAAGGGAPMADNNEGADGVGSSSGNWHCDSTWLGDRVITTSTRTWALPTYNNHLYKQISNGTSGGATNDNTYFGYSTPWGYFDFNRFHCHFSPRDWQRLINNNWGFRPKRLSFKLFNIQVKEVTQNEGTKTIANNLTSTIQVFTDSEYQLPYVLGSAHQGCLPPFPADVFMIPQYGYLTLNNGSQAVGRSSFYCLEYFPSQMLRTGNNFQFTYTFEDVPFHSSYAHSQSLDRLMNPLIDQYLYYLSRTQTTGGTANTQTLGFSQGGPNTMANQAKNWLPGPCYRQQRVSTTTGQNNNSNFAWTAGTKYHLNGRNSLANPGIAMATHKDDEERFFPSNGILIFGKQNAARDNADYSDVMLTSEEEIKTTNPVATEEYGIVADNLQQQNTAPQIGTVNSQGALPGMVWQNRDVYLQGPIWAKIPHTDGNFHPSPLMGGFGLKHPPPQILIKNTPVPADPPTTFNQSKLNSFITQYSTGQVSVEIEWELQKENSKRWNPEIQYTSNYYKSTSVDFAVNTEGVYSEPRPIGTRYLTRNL
# Test Description: SPR, AAV amine-coupled to CM5 chip

Binder	kon, M⁻¹ s⁻¹
A4-C6 (bispecific antibody) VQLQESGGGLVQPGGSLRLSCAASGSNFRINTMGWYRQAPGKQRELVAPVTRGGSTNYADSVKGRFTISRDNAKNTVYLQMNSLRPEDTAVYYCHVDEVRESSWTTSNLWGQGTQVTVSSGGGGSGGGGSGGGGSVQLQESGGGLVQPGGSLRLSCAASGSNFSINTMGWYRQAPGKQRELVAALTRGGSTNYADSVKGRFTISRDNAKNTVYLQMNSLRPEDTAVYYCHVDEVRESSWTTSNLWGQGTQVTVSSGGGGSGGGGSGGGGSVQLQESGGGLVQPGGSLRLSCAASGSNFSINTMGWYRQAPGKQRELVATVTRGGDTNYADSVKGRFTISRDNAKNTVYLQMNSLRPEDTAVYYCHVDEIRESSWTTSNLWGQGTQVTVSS	165000
